melting point values by entry

Here's what some known entries look like.
CC(C)c1cccc(C(C)C)c1NC(=O)CSCCCCCCCCCBr: 85 to 86 °C
CSC(=S)Oc1cnc(C)c2c1COC(C)(C)O2: 88 to 90 °C
COC(=O)C(c1ccc(O)cc1)N1CC(N2C(=O)c3ccccc3C2=O)C1=O (centres undefined): 203 to 204 °C
c1ccc(NC2=NC3CCCc4cccc(c43)N2)cc1 (centres undefined): 233 to 235 °C
CCCc1c(COc2ccc(Cc3nnn(CCCC(=O)O)n3)cc2)ccc(C(C)=O)c1O: 92 to 94 °C
Cc1nnc(-c2nn(-c3cccc(C(F)(F)F)c3)ccc2=O)n1-c1ccccc1: 191 to 192 °C
COc1nc2ccccc2nc1N(C)C(=O)N1CCN(c2cc(C)cc(C)c2)CC1: 142 to 144 °C
CN(C)CCNC(=O)N1CCC(Oc2ccccc2)C1 (centres undefined): 72 to 73 °C
O=C1Cc2cc(O)ccc2N1c1c(Cl)cccc1Cl: 204 to 205 °C
O=C(Nc1ccc(Oc2ccnc(N3CCCC3)n2)c2ccccc12)c1cc(F)cc(N2CCCCC2)c1: 111 to 113 °C

# input Look up and report measured melting point for this entry: "CCCOc1ccc(S(C)(=O)=O)cc1-c1nc2c(CC)nn(C[C@@H]3CCCN3C)c2c(=O)[nH]1"
# output 211 to 215 °C

# input Look up and report measured melting point for this entry: CC(=O)NCC1CN(c2ccc(N3CCN(c4nc5ccc(F)cc5o4)CC3)c(F)c2)C(=O)O1 (centres undefined)
# output 233 to 234 °C

# input Look up and report measured melting point for this entry: O=C(O)CC1CCc2[nH]c3ccccc3c2C1 (centres undefined)
# output 209 to 210 °C

# input Look up and report measured melting point for this entry: "CC(C)N(CCc1c[nH]c2cc(Cl)ccc12)Cc1cccc(OCC(F)(F)C(F)(F)F)c1"
# output 77 to 80.2 °C

Sourced from a melting point compilation (Tetko et al.; mined from patent text by program, amines drawn as free bases though some values may be those of a salt)
